These data points were gathered from the METLIN SMRT retention time set (Domingo-Almenara et al. 2019).

# assay-text: gradient 5% acetonitrile 3 min, to 50% in 2 min, to 85% in 15 min, held 3 min, 100 µL/min
# cond: column: Zorbax Extend-C18 2.1 x 50 mm; eluents: water / acetonitrile, 0.1% formic acid
quantity: RP-LC retention time (s)
Dear colleague, please return just the value in s, with no unit written.

molecule	quantity	quantitative-result
CCCN1CCN(c2ncc3c(n2)CCN(Cc2ccc(OCC)c(OCC)c2)C3)CC1	RP-LC retention time	579
CCCNC(=O)N1CCC(c2cnn(-c3ccccc3)c2)CC1	RP-LC retention time	779
COc1cccc(Cn2ccc3ccn(CCN(C)C)c3c2=O)c1	RP-LC retention time	639

Answer with the recorded RP-LC retention time for the molecule listed here: COCC(=O)NC1CCC12CCN(C(=O)CC1CCCC1)CC2 (stereo unspecified)
722

Note down RP-LC retention time recorded for CCOC(=O)c1cc(S(=O)(=O)N2CCCC2C(=O)Nc2cc(F)ccc2F)cn1C (stereo unspecified)
982

Name the recorded RP-LC retention time of the item CCC(C)C(NC(=O)c1ccc2c(c1)OCO2)C(=O)Nc1nc2ccccc2[nH]1 (stereo unspecified) in your answer.
718

Give a short answer stating reported RP-LC retention time for `Cc1cc(N2CCN(C)CC2)nc2ccc(NC(=O)NCc3ccc(F)cc3)cc12` .
556

# return recorded RP-LC retention time for input Cc1ccc(S(=O)(=O)N2CCCC2C(=O)Nc2ccc(C)cc2C)cc1 (stereo unspecified)
969

Indicate its recorded RP-LC retention time; the molecule in question is `O=S(=O)(Nc1ccncc1)c1cccc(C(F)(F)F)c1`
591

Answer with reported RP-LC retention time of `CCCN1C(=O)Cc2cc(C(=O)NC3CC3)ccc21`
652

Fill in reported RP-LC retention time for this entry: `Cc1noc(C)c1C(=O)N1CC(c2nc(CCOC3CCCC3)no2)C1`
788

Give the value of RP-LC retention time reported for the following: `CC(C)c1nc2c(c(=O)n1CC(=O)Nc1ccccc1)CCN(Cc1ccccc1)C2`
674

Answer with reported RP-LC retention time of `Cc1cc(OCC(=O)Nc2nc(-c3ccccc3)cs2)cc(C)c1Cl`
1250

----------
# assay-text: gradient 5% acetonitrile 3 min, to 50% in 2 min, to 85% in 15 min, held 3 min, 100 µL/min
# cond: column: Zorbax Extend-C18 2.1 x 50 mm; eluents: water / acetonitrile, 0.1% formic acid
quantity: RP-LC retention time (s)
The reply should be a number in s, with the unit left off.

Sample records with RP-LC retention time:
molecule	reading-unit	quantitative-result
Cc1nncn1C1CCN(S(=O)(=O)c2ccccc2F)CC1	s	654
Cc1ccc(N2C(=O)C3N=NN(Cc4nc(-c5ccc(OC(C)C)cc5)no4)C3C2=O)cc1 (centres undefined)	s	1110
Cc1ccc(-n2ncc3c(C)nn(CC(=O)Nc4cc(C)on4)c(=O)c32)c(C)c1	s	775
Cc1cc(C)cc(NC(=O)C2CC(=O)N(c3n[nH]c4cccc(F)c34)C2)c1 (centres undefined)	s	770
CCN1C(=O)CCc2cc(NC(=O)c3ccnn3C)ccc21	s	677

Write down RP-LC retention time measured for item `COC(=O)c1ccc(NC(=O)Cn2cccc(-c3nc(-c4ccc(Cl)cc4)no3)c2=O)cc1`
934

Check the records and state RP-LC retention time for `Cc1oc(-c2[nH]ncc2C(=O)N2CCOCC2)cc1S(=O)(=O)NCC(C)C`
645

Indicate its recorded RP-LC retention time; the molecule in question is COc1cccc(-c2noc(C3CCCN3C(=O)Nc3cc(C)ccc3C)n2)c1 (centres undefined)
1020

Provide RP-LC retention time value for the following molecule: `COc1ccccc1NS(=O)(=O)c1cc2n(c1)CCN(C(C)C)C2=O`
733
